- testContext: in methyl acetate, 318.15 K
endpointLabel: solubility (mole fraction)
Answers are plain numbers.

input: Which solubility (mole fraction) reading was recorded for the compound COc1ccc(C(=O)O)cc1 ?
output: 0.0213

----------
- testContext: in n-propanol, 288.15 K
endpointLabel: solubility (mole fraction)
Give bare numbers.

input: Which solubility (mole fraction) reading was recorded for the compound COc1ccc(C(=O)O)cc1 ?
output: 0.00754

----------
- testContext: in methyl acetate, 313.15 K
endpointLabel: solubility (mole fraction)
Numbers only.

input: Which solubility (mole fraction) reading was recorded for the molecule COc1ccc(C(=O)O)cc1 ?
output: 0.0176

----------
- testContext: in ethyl acetate, 298.15 K
endpointLabel: solubility (mole fraction)
One number for each entry.

input: Which solubility (mole fraction) reading was recorded for the compound COc1ccc(C(=O)O)cc1 ?
output: 0.0112

----------
- testContext: in acetonitrile, 278.15 K
endpointLabel: solubility (mole fraction)

input: Which solubility (mole fraction) reading was recorded for the molecule COc1ccc(C(=O)O)cc1 ?
output: 0.00122

----------
- testContext: in methyl acetate, 308.15 K
endpointLabel: solubility (mole fraction)
Numbers only.

input: Which solubility (mole fraction) reading was recorded for the compound COc1ccc(C(=O)O)cc1 ?
output: 0.0153

----------
- testContext: in ethanol, 303.15 K
endpointLabel: solubility (mole fraction)
Numbers only.

input: Which solubility (mole fraction) reading was recorded for the molecule COc1ccc(C(=O)O)cc1 ?
output: 0.0136

----------
- testContext: in n-propanol, 318.15 K
endpointLabel: solubility (mole fraction)

input: Which solubility (mole fraction) reading was recorded for the molecule COc1ccc(C(=O)O)cc1 ?
output: 0.0201

----------
- testContext: in n-propanol, 308.15 K
endpointLabel: solubility (mole fraction)

input: Which solubility (mole fraction) reading was recorded for the molecule COc1ccc(C(=O)O)cc1 ?
output: 0.0149

----------
- testContext: in acetonitrile, 298.15 K
endpointLabel: solubility (mole fraction)
Answers are plain numbers.

input: Which solubility (mole fraction) reading was recorded for the compound COc1ccc(C(=O)O)cc1 ?
output: 0.00281

----------
- testContext: in ethanol, 293.15 K
endpointLabel: solubility (mole fraction)

input: Which solubility (mole fraction) reading was recorded for the molecule COc1ccc(C(=O)O)cc1 ?
output: 0.0101

----------
- testContext: in methyl acetate, 298.15 K
endpointLabel: solubility (mole fraction)
Numbers only.

input: Which solubility (mole fraction) reading was recorded for the molecule COc1ccc(C(=O)O)cc1 ?
output: 0.0112

----------
- testContext: in ethyl acetate, 288.15 K
endpointLabel: solubility (mole fraction)
Answers are plain numbers.

input: Which solubility (mole fraction) reading was recorded for the compound COc1ccc(C(=O)O)cc1 ?
output: 0.00853

----------
- testContext: in acetonitrile, 283.15 K
endpointLabel: solubility (mole fraction)
Answers are plain numbers.

input: Which solubility (mole fraction) reading was recorded for the compound COc1ccc(C(=O)O)cc1 ?
output: 0.00156

----------
- testContext: in ethyl acetate, 308.15 K
endpointLabel: solubility (mole fraction)
Answers are plain numbers.

input: Which solubility (mole fraction) reading was recorded for the molecule COc1ccc(C(=O)O)cc1 ?
output: 0.0142

----------
- testContext: in isopropanol, 283.15 K
endpointLabel: solubility (mole fraction)
Answers are plain numbers.

input: Which solubility (mole fraction) reading was recorded for the molecule COc1ccc(C(=O)O)cc1 ?
output: 0.00597

----------
- testContext: in ethanol, 273.15 K
endpointLabel: solubility (mole fraction)
Numbers only.

input: Which solubility (mole fraction) reading was recorded for the compound COc1ccc(C(=O)O)cc1 ?
output: 0.00549

FYI, the data here is from BigSolDB 2.1.
